Tm values, listed per item
Experiment: melting temperature; UV melt of duplexes
Details: sodium 0.22 M; strand 2 µM
Report the figure in °C without appending any unit label.

- CTTAAGATATGAGAACTTCAACTAATGTGT+ACACATTAGTTGAAGTTCTCATATCTTAAG ((((((((((((((((((((((((((((((+)))))))))))))))))))))))))))))): 64.9
- CCGTGCGGTGTGTACGTTTTATTCATCATA+TATGATGAATAAAACGTACACACCGCACGG ((((((((((((((((((((((((((((((+)))))))))))))))))))))))))))))): 71.8
- TTCCAAAAGGAGTTATGAGTTGCGA+TCGCAACTCATAACTCCTTTTGGAA (((((((((((((((((((((((((+))))))))))))))))))))))))): 67.2
- CTGGTCTGGATCTGAGAACTTCAGG+CCTGAAGTTCTCAGATCCAGACCAG (((((((((((((((((((((((((+))))))))))))))))))))))))): 69.6

Provide Tm value for the following substance: TAGTGGCGATTAGATTCTGC+GCAGAATCTAATCGCCACTA ((((((((((((((((((((+)))))))))))))))))))) 64.8

Could you please provide reported Tm for ATGCAATGCTACATATTCGC+GCGAATATGTAGCATTGCAT ((((((((((((((((((((+)))))))))))))))))))) ? Thanks! 62.9
